Target: T1, Human DLL3 full-length protein on cells (human, UniProt Q9NYJ7 27-618)
T1 construct: H1184 and DMS53 express DLL3 themselves; The cell line is named under assay; also called H1184 cells; DLL3/H82
T1 sequence: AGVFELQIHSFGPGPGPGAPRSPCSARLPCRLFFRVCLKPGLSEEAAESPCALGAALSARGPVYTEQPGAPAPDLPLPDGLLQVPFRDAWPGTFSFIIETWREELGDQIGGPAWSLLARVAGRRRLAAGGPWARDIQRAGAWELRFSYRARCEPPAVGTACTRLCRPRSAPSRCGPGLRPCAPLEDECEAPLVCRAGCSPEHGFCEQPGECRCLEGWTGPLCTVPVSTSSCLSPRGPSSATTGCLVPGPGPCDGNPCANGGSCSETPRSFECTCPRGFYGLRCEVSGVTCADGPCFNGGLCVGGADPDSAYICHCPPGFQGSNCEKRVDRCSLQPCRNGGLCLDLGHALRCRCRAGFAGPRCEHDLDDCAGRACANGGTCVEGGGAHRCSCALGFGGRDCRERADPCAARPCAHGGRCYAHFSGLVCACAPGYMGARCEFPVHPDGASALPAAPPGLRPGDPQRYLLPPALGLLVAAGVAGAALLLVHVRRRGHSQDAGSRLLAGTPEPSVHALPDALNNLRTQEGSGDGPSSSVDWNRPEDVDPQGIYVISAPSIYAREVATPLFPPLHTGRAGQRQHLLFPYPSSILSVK
Test: FACS on H1184 cells
pEC50: −log10 of the molar value.

binder: M6CHI (antibody, human IgG1, kappa, V domains shown, murine variable regions on human IgG1 / kappa constant regions; also called chimeric antibody of mAb6) VH: EVQLQQSGPVLVKPGASVKMSCKASGYTFTDYYMNWVKQSHGKSLEWIGIINPYSGVTIYNHKFKGKATLTVDKSSNTAYMELNSLTSEDSAVYYCARQDSLLDYAMDYWGQGTSVTVSS VL: DILMTQSPSSMSVSLGDTVSITCHASQGISGNMGWLQQKPGKSFKGLIYHGANLEDGVPSRFSGSGSGADYSLTISSLESEDFADYYCVQYAQFPYTFGGGTKLEIKR
pEC50: 9.85

binder: Hu6 (antibody, human IgG1, kappa, V domains shown, also called hAb6L4H12) VH: EVQLVQSGSELKKPGASVKVSCKASGYTFTDYYMNWVRQAPGQGLEWMGIINPYSGVTIYNHKFKGRFALSVDKSSNTAYLQISSLKAEDTAVYYCARQDSLLDYAMDYWGQGTTVTVSS VL: DIQMTQSPSSLSASVGDRVTITCHASQGISGNMGWLQQKPGKAPKGLIYHGANLEDGVPSRFSGSGSGADYTLTISSLQPEDFADYYCVQYAQFPYTFGGGTKVEIKR
pEC50: 10.22

binder: BI-764532 (antibody, human IgG1, kappa, V domains shown, also called positive control molecule) VH: QVQLVQSGAEVKKPGASVKVSCKASGYTFTSYYVHWVRQAPGQGLEWMVIINPGGGTTSYAQKFLGRVTMTRDTSTNTVYMELKSLRSEDTAVYYCARGEAVTGNYFYYGMDVWGQGTTVTVSS VL: DIQMTQSPSAMSASVGDRVTITCRASQGISNYLVWFQQKPGKAPKRLIYAVSSLYSGVPSRFSGSGSGTEFTLTISSLQPEDFATYYCLQHDSYPYTFGQGTKLEIKR
pEC50: 8.40
